B1: ZBED3 (parent)
chain: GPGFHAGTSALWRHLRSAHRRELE

Variants of: B1
test details: protein stability index of a GFP-peptide fusion (GPS, HEK-293T) (PSI 1-6); higher = more stable;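 also: lentivirally expressed fusions sorted by FACS into six bins by GFP to DsRed ratio, PSI derived from sequencing read proportions per bin multiplied by bin number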
assay context: c terminus: a fixed tail appended
Label Condition not met if protein stability index falls below 3; label Condition met in every other case.

Recorded results for 3 variants are shown here.
[
  {
    "sequence": "GPGFHAGTSALWRHLRSAFRRELE",
    "category": "Condition not met"
  },
  {
    "sequence": "GPGFHAGTSALWRHLRWAHRRELE",
    "category": "Condition met"
  },
  {
    "sequence": "GVGFHAGTSALWRHLRSAHRRELE",
    "category": "Condition not met"
  }
]

Data request: Does protein stability index meet or surpass 3 for `GPGFHAGTSALWRHLRSAHRHELE` ?
Data returned: Condition not met

Data request: Does protein stability index meet or surpass 3 for `GPGFHAGTSALWEHLRSAHRRELE` ?
Data returned: Condition not met

Data request: Does protein stability index meet or surpass 3 for `GPGFHAGTSALWFHLRSAHRRELE` ?
Data returned: Condition not met

Source: the supplement of paper PMC10567573
